Values from ChEMBL document CHEMBL4477213

# Method Notes: Clearance in rat at 2 mg/kg, iv
# Format: ADME, organism-based
# Condition Set: in vivo
Measured Parameter: clearance (L/h/kg)

1. C[C@H]1NC(=O)c2cc(-c3c(F)ccc4c(=O)n(C)c(NC(C)(C)C)nc34)[nH]c21; 0.4
2. Cc1nc2cccc(-c3cc4c([nH]3)[C@@H](C)NC4=O)c2nc1NC(C)(C)C; 0.5
3. Cc1nc2cccc(-c3cc4c([nH]3)C3(CC3)NC4=O)c2nc1NC(C)(C)C; 0.6
4. Cc1nc2ccc(F)c(-c3cc4c([nH]3)[C@@H](C)NC4=O)c2nc1NC(C)(C)C; 0.5
5. Cc1nc2cccc(-c3cc4c([nH]3)CNC4=O)c2nc1NC(C)(C)C; 1.6

1. Cc1nc2ccc(F)c(-c3cc4c([nH]3)CCNC4=O)c2nc1NC(C)(C)C
2. Cc1nc2cccc(-c3cc4c([nH]3)CCNC4=O)c2nc1NC(C)(C)C
3. Cc1nc2cccc(-c3cc4c([nH]3)[C@@H](CCN)NC4=O)c2nc1NC(C)(C)C
input: Descending sort on clearance required. State the ranking by listing the labels in the requested order.
output: 3, 2, 1
(3: 1.4 L/h/kg, 2: 0.7 L/h/kg, 1: 0.4 L/h/kg)
